Tested on: MDA-MB-468 breast
Assay: NCI-60 one-dose screen, 48 h (100 = growth as untreated, 0 = no growth, -100 = all killed)
Details: 10 µM unless noted
The panel holds about 83,000 compounds, 20% with a hit somewhere; the sample as a whole holds those more often.
ENDPOINT NAME: growth (%)
API: value field is a number in %; no unit string.

[ask] Consider the molecule shown here: CC12CCC3(CCC(=O)NCCCNc4ccnc5cc(Cl)ccc45)[C@@](C)(OO[C@]3(C)O1)O2 What is its recorded growth?
[reply] -38.3

[ask] Next molecule up: CC(C)C[C@H](NC(=O)CNC(=O)C[C@H]1O[C@@H]2OC3(C)CC[C@H]4[C@H](C)CC[C@@H]([C@H]1C)[C@@]24OO3)B(O)O
[reply] -60.8

[ask] Can you check CC1(C)C=Cc2c(ccc3c2[N+]([O-])=C2C3=C[C@@]34NC(=O)[C@]5(CCCN5C3=O)C[C@@H]4C2(C)C)O1 next?
[reply] 8.16

[ask] Now the same for CCn1nccc1NC(=O)C(=O)c1cn(Cc2ccc(F)cc2)c2cccc(OC)c12
[reply] 102

====

Test system: COLO 205 colon
Assay: NCI-60 one-dose screen, 48 h
Settings: 10 µM
Compounds without any hit were thinned out: in the full panel of roughly 83,000, 20% have a hit. Activity calls are given as the source filed them. Rule for the calls: active = growth percent below 10; inactive = the rest.
In this exercise, the only acceptable responses are active, inactive

[ask] Hey, what did the test say about COC(=O)C[C@](O)(CCCC(C)C)C(=O)O[C@H]1C(OC)=C[C@@]23CCCN2CCc2cc4c(cc2[C@@H]13)OCO4 ?
[reply] active

[ask] Next entry: O=C(/C=C/c1ccc(Cl)cc1)c1nc2ccccc2n1Cc1ccc(Br)cc1
[reply] inactive

[ask] Okay, and CC1=C2C(=C[C@@](C)(COP(=O)(Oc3ccccc3)Oc3ccccc3)[C@@H]2O)C(=O)[C@@](C)(O)C12CC2 ?
[reply] active

[ask] Can you check COC(=O)C[C@](O)(CCC(C)C)C(=O)O[C@@H]1C(OC)=C[C@]23CCCN2CCc2cc4c(cc2[C@H]13)OCO4 next?
[reply] active

[ask] For CC1=C(C=O)C2=C(C)C3(CC3)[C@@](C)(O)C(=O)C2=C1 then?
[reply] inactive

[ask] Now give it for O=C(/C=C/c1cccc(Br)c1)c1nc2ccccc2n1Cc1ccc(Br)cc1 too.
[reply] active

[ask] Can you check C#CCCCN(CCNc1ccnc2cc(Cl)ccc12)C(=O)CCC(=O)O[C@@H]1O[C@@H]2OC3(C)CC[C@H]4[C@H](C)CC[C@@H]([C@H]1C)[C@@]24OO3 next?
[reply] active

[ask] Record: COc1cc(OC)c(S(=O)(=O)N(CCCl)CCCl)cc1C(=O)/C=C/c1ccc(C)cc1
[reply] inactive

[ask] Try CCOC(=O)C1=C(Nc2ccccc2)C(=O)OC12C(=O)Nc1ccccc12 (stereo not drawn) next.
[reply] inactive

[ask] Would you kindly repeat that for Cc1ccc2[nH]c(=S)n(-c3ccc(F)cc3)c(=O)c2c1 ?
[reply] inactive

[ask] Continue with O=C(/C=C/c1ccc(Cl)cc1Cl)c1nc2ccccc2n1Cc1ccc(F)cc1
[reply] inactive

[ask] Same for COP(=O)(CC(F)(F)C(F)(F)F)OC
[reply] active

[ask] What would you report for CC12OOC(C)(OO1)C2CCC(=O)OCCNc1ccnc2cc(Cl)ccc12 (stereo not drawn) ?
[reply] active

[ask] How about this compound: O=C(/C=C/c1cccc(Br)c1)c1nc2ccccc2n1Cc1ccc(F)cc1
[reply] inactive

[ask] Another compound to look at: CC[C@]12C=CCN3CC[C@@]4(c5ccc(OC)cc5N(C)[C@H]4[C@@](O)(C(=O)OC)[C@@H]1OC(=O)CCC[P+](c1ccc(C)cc1)(c1ccc(C)cc1)c1ccc(C)cc1)[C@@H]32
[reply] active

[ask] What would you report for C[C@H]1[C@H](OC(=O)CCC(=O)Nc2cnccn2)O[C@@H]2OC3(C)CC[C@H]4[C@H](C)CC[C@@H]1[C@@]24OO3 ?
[reply] inactive

[ask] Entry to check: O=C(/C=C/c1ccc(Br)cc1)c1nc2ccccc2n1Cc1ccc(Br)cc1
[reply] active

[ask] Okay, and O=C(/C=C/c1ccccc1)c1nc2ccccc2n1Cc1ccc(F)cc1 ?
[reply] active

====

Tested on: MDA-MB-468 breast
Assay: NCI-60 one-dose screen, 48 h (100 = growth as untreated, 0 = no growth, -100 = all killed)
Conditions: 10 µM unless noted
This is part of a sample that, as a whole, favours compounds with a hit. Of some 83,000 tested, about 20% had one in any assay.
ENDPOINT NAME: growth (%)
Your answer should be a plain number; it is taken to be in %.

[ask] What does the data say about its growth? Entry: CN1CCC2(CC1)C(C#N)C(=O)NC(=O)C2C#N (centres undefined)
[reply] 102

[ask] Please do the same for CCCC[C@H](NC(=O)[C@H]1CCCCN1C)C(=O)N(C)[C@H](C[C@@H](OC(C)=O)c1nc(C(=O)N[C@@H](Cc2ccccc2)C[C@H](C)C(=O)OCC)cs1)C(C)C as well.
[reply] 31.2

[ask] Please give the result for c1ccc2nc(OCCN3CC3)ccc2c1 too.
[reply] 69.3

[ask] Same question, OCc1ccc2c(c1)OCO2 this time
[reply] 97.6

[ask] Now the compound CC[C@H](C)[C@H](NC(=O)c1nccn1C)C(=O)N(C)[C@H](C[C@@H](OC(C)=O)c1nc(C(=O)N[C@@H](Cc2ccccc2)C[C@H](C)C(=O)OC)cs1)C(C)C
[reply] 25.7

[ask] Now try CC12CCC(=O)C=C1C(O)CC1C2CCC2(C)C(O)CCC12 (centres undefined) .
[reply] 104

[ask] Also, C[C@@H]1CCC2[C@@H](C)[C@H](OC(=O)CCC(=O)NCCNC(=O)Cc3cc(=O)oc4cc(N(C)C)ccc34)O[C@@H]3O[C@]4(C)CC[C@@H]1C23OO4 (some centres undefined) please.
[reply] 63.7

[ask] Check O=[N+]([O-])c1ccc(OCc2ccc(S(=O)(=O)F)c(Cl)c2)c(Cl)c1 too.
[reply] 121

[ask] Now this one: O=C(Nc1ccc([N+](=O)[O-])cc1)C(Cl)(Cl)Cl
[reply] 96.5

[ask] And OC1CCCCC1N1CCC(c2ccccc2)CC1 (centres undefined) ?
[reply] 116

[ask] Next up: COC(=O)[C@@H](C)C[C@H](Cc1ccccc1)NC(=O)c1cccc([C@@H](C[C@H](C(C)C)N(C)C(=O)[C@@H](NC(=O)[C@H]2CCCCN2C)C2CC2)OC(C)=O)n1
[reply] 35.3

[ask] // query: CCCOC(=O)N[C@H]1CCc2c(Br)c(OC)c(OC)c(OC)c2-c2ccc(SC)c(=O)cc21
[reply] -14.2

[ask] Do the same for C[C@]12CC[C@H]3[C@@H](CC4SC(N)=NC45C/C(=N/NC(N)=O)CC[C@]35C)[C@@H]1CCC2=O (some centres undefined) please
[reply] -46.2

[ask] Follow-up entry: CNCc1cccnc1
[reply] 110

[ask] Lookup O=S(=O)(F)c1cccc(Cl)c1C[P+](c1ccccc1)(c1ccccc1)c1ccccc1
[reply] 46.9

[ask] Now the compound C=C1[C@@H](C)C2[C@H](Cc3ccccc3)NC(=O)[C@]23[C@H](OC(C)=O)/C=C/[C@@](C)(O)C(=O)[C@@H](C)C/C=C/[C@H]3[C@@H]1O (some centres undefined)
[reply] 45.2

[ask] Another compound to check: CO[C@@H](c1ccccc1Cl)[C@H](C)OC(N)=O
[reply] 91.6

[ask] Same again, this time with CCC(=O)Nc1ccc(Cl)c(Cl)c1
[reply] 101

[ask] Same question, CN(CCF)/N=N/c1nc[nH]c1C(N)=O this time
[reply] 26.7

[ask] Cool, now Clc1ccc(COC(Cn2ccnc2)c2ccc(Cl)cc2Cl)cc1 (centres undefined)
[reply] 39.7

[ask] Another compound to look at: CC(C)N=C([Se])NC(=O)c1ccccc1
[reply] -46

[ask] Let us now turn to CC/C(Cc1ccccc1)=C(\c1ccc(OCCN2CCCC2)cc1)c1ccc(OC(=O)NCc2ccccc2)cc1
[reply] 14.8

[ask] And the next one, C[C@]12CC[C@H](OC3OC(O)C(O)C(O)C3O)C=C1CCC1C2CC[C@]2(C)[C@@H](c3ccc(=O)oc3)CC[C@]12O (some centres undefined) ?
[reply] -63.8

[ask] What do you get for COC(=O)N[C@H]1CCc2c(Br)c(OC)c(OC)c(OC)c2-c2ccc(SC)c(=O)cc21 ?
[reply] -23.7

[ask] And CCCC(C)SP(=S)(SC(C)CCC)SC(C)CCC (centres undefined) ?
[reply] -25.4

[ask] Now give it for O=C1c2ccccc2C(=O)N1[N+](=O)[O-] too.
[reply] 89.2

[ask] Also check N#CC(C#N)=C(C#N)C#N
[reply] 102

[ask] And for C[C@]12CCC3[C@@H](C[C@@H]4SC(Nc5ccccc5)=N[C@@]45CC(=O)CC[C@]35C)[C@@H]1CCC2=O (some centres undefined) ?
[reply] -26.8

[ask] Repeat for the following compound: C=CC[Se]C(=O)c1ccc(C(=O)[Se]CC=C)s1
[reply] -60.6

[ask] Request: CCCCCCCCCCCCNC(c1ccccc1)C(O)c1ccccc1 (centres undefined)
[reply] 48.5

[ask] Please do the same for CN1CCCCC1C(C)(O)c1ccccc1 (centres undefined) as well.
[reply] 102

[ask] Entry CN1C(=O)C(=Cc2cn(Cc3ccccc3)c3ccccc23)C(=O)N(C)C1=O please
[reply] -49.5

[ask] Another compound to check: Nc1ccc(S(=O)(=O)F)cc1
[reply] 107

[ask] Now this one: C[CH2][Pb]([CH2]C)([CH2]C)[O]C(=O)COc1ccccc1
[reply] 9.74

[ask] Repeat with ClCCN(CCCl)c1ccc(/C=N/Nc2ncnc3nc[nH]c23)cc1
[reply] 49.8

[ask] Please do the same for N#Cc1c(-n2c(Br)c(Br)c3cc(Br)ccc32)[nH]c2c(Br)cc(Br)cc12 as well.
[reply] -16.3

[ask] Now consider CC(C)c1cc([N+](=O)[O-])cc([N+](=O)[O-])c1O and answer again.
[reply] 96.7

[ask] Lookup CNc1ccc(C(=O)CC(O)CCC(C)C2OC(=O)CC(O)CC(=O)CC(O)CC(O)CC(O)CC(O)CC3(O)CC(O)C(C(=O)OC)C(CC(O[C@@H]4O[C@H](C)[C@@H](O)[C@H](N)[C@@H]4O)/C=C/C=C/C=C/C=C/C=C/C=C/C=C/C2C)O3)cc1 (some centres undefined)
[reply] 36.5

[ask] Please do the same for CNC(=O)Oc1cccc(OC)c1 as well.
[reply] 106
